biological target: ErbB-4 receptor-Ig fusion (human) (UniProt Q15303); assay: displacement of 125I-HRG-β1 177-244 from ErbB-4-Ig
pEC50: −log10 of the molar value.

| BINDER | pEC50 |
| --- | --- |
| Trx-HRG-β1 146-244 F229A fusion (ligand) DDDDKAYVSSESPIRISVSTEGANTSSSTSTSTTGTSHLVKCAEKEKTFCVNGGECFMVKDLSNPSRYLCKCPNEFTGDRCQNYVMASAYKHLGIEFMEAEELY | 7.05 |
| Trx-HRG-β1 146-244 H178A fusion (ligand) DDDDKAYVSSESPIRISVSTEGANTSSSTSTSTTGTSALVKCAEKEKTFCVNGGECFMVKDLSNPSRYLCKCPNEFTGDRCQNYVMASFYKHLGIEFMEAEELY | 6.86 |
| Trx-HRG-β1 146-244 E215A fusion (ligand) DDDDKAYVSSESPIRISVSTEGANTSSSTSTSTTGTSHLVKCAEKEKTFCVNGGECFMVKDLSNPSRYLCKCPNAFTGDRCQNYVMASFYKHLGIEFMEAEELY | 6.98 |
